Measured values drawn from patent US20260125446A1 for this set.

Listed below: koff values for each entry.
# TESTED TARGET: T1, rat serum albumin (rat, UniProt P02770 25-608)
# T1 construct: Bought protein, immobilized on a CM5 chip by amine coupling; also called Rat SA
# METHOD: SPR (Biacore 8K), albumin immobilized on CM5 chip, 25 C, 1:1 kinetic fit
Your answer should be a plain number; it is taken to be in s⁻¹.

- BINDER: "RLN Analog 1 (other) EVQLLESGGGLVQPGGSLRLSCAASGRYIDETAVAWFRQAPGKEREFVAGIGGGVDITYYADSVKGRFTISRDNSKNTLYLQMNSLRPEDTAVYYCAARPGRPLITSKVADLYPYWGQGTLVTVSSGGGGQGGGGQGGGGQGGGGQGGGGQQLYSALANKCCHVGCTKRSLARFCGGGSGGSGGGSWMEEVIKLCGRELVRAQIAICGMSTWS"
  QUANTITATIVE READOUT: 0.0026
- BINDER: "RLN Analog 12 (other, Single-chain fusion: VHH - (G4Q)5 L1 - RLN2 B chain (desB1) - L2 of thirteen residues - RLN2 A chain (desA1-4)) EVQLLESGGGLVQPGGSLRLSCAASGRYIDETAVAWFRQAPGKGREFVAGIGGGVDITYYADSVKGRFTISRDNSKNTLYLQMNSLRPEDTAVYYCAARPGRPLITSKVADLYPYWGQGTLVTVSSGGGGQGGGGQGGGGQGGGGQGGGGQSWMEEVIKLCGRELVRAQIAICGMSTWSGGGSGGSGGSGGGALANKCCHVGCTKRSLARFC"
  QUANTITATIVE READOUT: 0.0033

Switching to the query record.
Problem: Query (binder): RLN Analog 2 (other, Single-chain fusion: VHH - (PGPA)8 L1 - RLN2 A chain - L2 - RLN2 B chain (desB1)) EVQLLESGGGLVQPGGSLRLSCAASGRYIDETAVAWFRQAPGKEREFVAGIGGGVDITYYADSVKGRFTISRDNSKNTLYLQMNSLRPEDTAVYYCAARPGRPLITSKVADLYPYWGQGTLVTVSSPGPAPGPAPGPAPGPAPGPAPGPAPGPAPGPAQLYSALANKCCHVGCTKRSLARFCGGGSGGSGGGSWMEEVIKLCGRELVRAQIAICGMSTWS ; field requested: koff
Solution: 0.0029
